The measured values listed here are drawn from patent US11491162B2.

procedure_details: In vitro permeability in Caco-2 cells
Type: in vitro ADME
condition_info: human, Caco-2, with none (PYRO 0 μM); PYRO 0 μM, pH 7.4/7.4, Table 8; read-out: PAPP (A-B)
Structures can show the parent of a compound that is named as a salt.
quantity_name: Papp A→B at 2 h, 1 μM (nm/s)
One number for each entry, in nm/s.

Papp A→B at 2 h, 1 μM in this record for O=C(NCCN1CCCC1)c1cc(-c2ccc(CN3CCOCC3)cc2)nc2ccc(F)cc12 [M1, succinate salt] : 20

----------
procedure_details: In vitro permeability in Caco-2 cells
Format: in vitro ADME
condition_info: human, Caco-2, with PYRO 1 μM; PYRO 1 μM, pH 7.4/7.4, Table 8; read-out: PAPP (A-B)
Structures can show the parent of a compound that is named as a salt.
quantity_name: Papp A→B at 2 h, 1 μM (nm/s)
Numbers only, in nm/s.

Papp A→B at 2 h, 1 μM in this record for O=C(NCCN1CCCC1)c1cc(-c2ccc(CN3CCOCC3)cc2)nc2ccc(F)cc12 [M1, succinate salt] : 21.7

----------
procedure_details: In vitro permeability in Caco-2 cells
Format: in vitro ADME
condition_info: human, Caco-2, with PYRO 10 μM; PYRO 10 μM, pH 7.4/7.4, Table 8; read-out: PAPP (A-B)
Where a name gives a salt, the structure may show the parent alone.
quantity_name: Papp A→B at 2 h, 1 μM (×10⁻⁶ cm/s)
Give bare numbers, in ×10⁻⁶ cm/s.

Papp A→B at 2 h, 1 μM in this record for O=C(NCCN1CCCC1)c1cc(-c2ccc(CN3CCOCC3)cc2)nc2ccc(F)cc12 [M1, succinate salt] : 3.42

----------
procedure_details: In vitro permeability in Caco-2 cells
Assay type: in vitro ADME
condition_info: human, Caco-2, pH 7.4, no P-gp inhibitor, pH 7.4/7.4, Table 7; read-out: RECOVERY apical to basolateral (A-B)
Structures can show the parent of a compound that is named as a salt.
quantity_name: recovery at 2 h, 1 μM (%)
Give bare numbers, in %.

recovery at 2 h, 1 μM in this record for O=C(NCCN1CCCC1)c1cc(-c2ccc(CN3CCOCC3)cc2)nc2ccc(F)cc12 [M1, succinate salt] : 79.8

----------
procedure_details: In vitro permeability in Caco-2 cells
Format: in vitro ADME
condition_info: human, Caco-2, with PYRO 1 μM; PYRO 1 μM, pH 7.4/7.4, Table 8
Where a name gives a salt, the structure may show the parent alone.
quantity_name: Papp at 2 h, 1 μM (×10⁻⁶ cm/s)
Give bare numbers, in ×10⁻⁶ cm/s.

Papp at 2 h, 1 μM in this record for O=C(NCCN1CCCC1)c1cc(-c2ccc(CN3CCOCC3)cc2)nc2ccc(F)cc12 [M1, succinate salt] : 8.25
